target: ZYG11B (UniProt Q9C0D3); test: log2 fold change, soluble protein after heating vs DMSO (PISA); higher = thermal stabilisation; K562 cells, 10 uM, 30 min; active = over 0.2 and 3.5 SD of the protein, either way, in both replicates (recomputed)
Sequence (Q9C0D3 whole entry, looked up): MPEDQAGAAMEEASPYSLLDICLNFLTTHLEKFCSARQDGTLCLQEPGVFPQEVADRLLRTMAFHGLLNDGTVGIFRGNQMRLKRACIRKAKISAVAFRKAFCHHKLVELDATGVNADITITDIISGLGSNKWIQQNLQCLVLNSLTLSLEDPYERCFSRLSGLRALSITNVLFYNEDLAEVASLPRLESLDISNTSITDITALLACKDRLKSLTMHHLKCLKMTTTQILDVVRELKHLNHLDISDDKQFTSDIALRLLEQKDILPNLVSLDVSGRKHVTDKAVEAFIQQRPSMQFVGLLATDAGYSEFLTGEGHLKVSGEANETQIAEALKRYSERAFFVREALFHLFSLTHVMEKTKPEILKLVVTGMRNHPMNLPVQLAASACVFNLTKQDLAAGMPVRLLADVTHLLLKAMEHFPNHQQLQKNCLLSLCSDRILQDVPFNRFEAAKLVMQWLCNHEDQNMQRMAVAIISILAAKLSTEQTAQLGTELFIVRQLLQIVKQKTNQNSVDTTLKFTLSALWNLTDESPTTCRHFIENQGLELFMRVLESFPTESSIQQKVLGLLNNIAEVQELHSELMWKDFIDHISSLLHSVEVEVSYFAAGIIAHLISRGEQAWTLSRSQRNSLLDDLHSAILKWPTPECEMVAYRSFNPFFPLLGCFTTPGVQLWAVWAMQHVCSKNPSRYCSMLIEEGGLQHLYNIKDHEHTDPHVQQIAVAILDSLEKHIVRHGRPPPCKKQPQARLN
About 7,900 targets were measured; listed, in parts, are those with a hit and a random draw of the rest. About 0.6% of all pairs of compound and target were hits.
experimentalEndpoint: log2 fold change

- CC[C@@H]1C(=O)N(C)c2cnc(Nc3ccc(C(=O)NC4CCN(C)CC4)cc3OC)nc2N1C1CCCC1: -0.031
- CNc1nc(-c2ccc3c(N)n[nH]c3c2)cc(N2C[C@@H](C(=O)NC3CCCCC3)CC[C@H]2C)n1: 0.002
- Cc1ccc(NC(=O)c2cccc(N(C)C)c2)cc1NC(=O)c1ccc(O)cc1: -0.018
- C[C@@H](Oc1cc(-c2cnn(C3CCNCC3)c2)cnc1N)c1c(Cl)ccc(F)c1Cl: -0.031
- Oc1cc(-c2nc(-c3ccccc3)[nH]c2-c2ccncc2)ccc1Cl: 0.015
- CC(C)(C)Cn1c(N)nc2ccc(-c3[nH]c(C(C)(C)C)nc3-c3ccc(F)cc3)nc21: -0.046
- NC1(Cc2ccc(Cl)cc2)CCN(c2ncnc3[nH]ccc23)CC1: 0.055
- CN1CCN(CCOc2cc(OC3CCOCC3)c3c(Nc4c(Cl)ccc5c4OCO5)ncnc3c2)CC1: -0.051
- O=C(Nc1nc2ccccc2n1CCN1CCOCC1)c1cccc([N+](=O)[O-])c1: 0.044
- CNC(=O)c1ccc(Nc2ncc(C(F)(F)F)c(NCc3nccnc3N(C)S(C)(=O)=O)n2)cc1: -0.058
- Cc1cc(Nc2cc(N3CCN(C)CC3)nc(Sc3ccc(NC(=O)C4CC4)cc3)n2)n[nH]1: -0.031
- CC[C@@H]1C(=O)N(C)c2cnc(Nc3ccc(C(=O)N[C@H]4CC[C@H](N5CCN(CC6CC6)CC5)CC4)cc3OC)nc2N1C(C)C: 0.002
- COc1cc(C(=O)O)ccc1NC(=O)[C@@H]1N[C@@H](CC(C)(C)C)[C@](C#N)(c2ccc(Cl)cc2F)[C@H]1c1cccc(Cl)c1F: 0.01
- CN1CCc2c(c3ccccc3n2Cc2ccc(C(=O)NO)cc2)C1: 0.04
- CS(=O)(=O)c1ccc(-c2cnc(N)c(C(=O)Nc3ccccc3)n2)cc1: 0.01
- CS(=O)(=O)CCNCc1ccc(-c2ccc3ncnc(Nc4ccc(OCc5cccc(F)c5)c(Cl)c4)c3c2)o1: -0.05
- O=C1NC(=O)C(c2cnc3ccccn23)=C1c1cn2c3c(cc(F)cc13)CN(C(=O)N1CCCCC1)CC2: 0.019
- Cc1ccc(NC(=O)c2ccc(CN3CC[C@H](N(C)C)C3)c(C(F)(F)F)c2)cc1Nc1nccc(-c2cncnc2)n1: -0.272
- Nc1ccccc1NC(=O)c1ccc(CNC(=O)OCc2cccnc2)cc1: 0.013
- Cc1nc(Nc2ncc(C(=O)Nc3c(C)cccc3Cl)s2)cc(N2CCN(CCO)CC2)n1: -0.017
- Cc1cccc(CC(=O)N2CCc3c2ccc(-c2cn(C)c4ncnc(N)c24)c3F)n1: -0.031
- CN1CC[C@H](c2c(O)cc(O)c3c(=O)cc(-c4ccccc4Cl)oc23)[C@H](O)C1: -0.055

----------
target: ZW10 (UniProt O43264); assay: log2 fold change, soluble protein after heating vs DMSO (PISA); higher = thermal stabilisation; K562 cells, 10 uM, 30 min; active = over 0.2 and 3.5 SD of the protein, either way, in both replicates (recomputed)
Sequence (O43264 whole entry, looked up): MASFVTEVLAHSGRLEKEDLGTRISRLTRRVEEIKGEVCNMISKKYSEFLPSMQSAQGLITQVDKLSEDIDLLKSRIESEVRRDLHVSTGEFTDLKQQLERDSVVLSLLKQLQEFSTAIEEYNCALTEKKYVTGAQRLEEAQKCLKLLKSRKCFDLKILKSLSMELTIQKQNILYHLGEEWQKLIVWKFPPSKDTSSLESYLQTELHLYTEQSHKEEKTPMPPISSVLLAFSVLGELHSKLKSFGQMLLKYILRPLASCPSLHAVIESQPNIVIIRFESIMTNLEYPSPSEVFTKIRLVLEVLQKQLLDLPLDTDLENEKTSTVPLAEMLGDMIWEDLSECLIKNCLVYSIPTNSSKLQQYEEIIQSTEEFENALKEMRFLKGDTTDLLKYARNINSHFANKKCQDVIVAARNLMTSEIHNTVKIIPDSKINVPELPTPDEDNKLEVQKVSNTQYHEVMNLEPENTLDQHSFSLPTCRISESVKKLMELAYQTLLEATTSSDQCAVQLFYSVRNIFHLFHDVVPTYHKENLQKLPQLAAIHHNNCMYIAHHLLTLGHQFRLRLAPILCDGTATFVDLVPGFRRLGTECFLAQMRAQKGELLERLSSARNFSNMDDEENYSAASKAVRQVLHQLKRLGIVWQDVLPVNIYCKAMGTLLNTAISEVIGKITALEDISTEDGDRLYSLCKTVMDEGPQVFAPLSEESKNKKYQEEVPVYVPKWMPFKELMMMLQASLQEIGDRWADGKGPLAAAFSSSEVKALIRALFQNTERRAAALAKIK
The full data set covers some 7,900 targets. This sample favours those with a hit. About 0.6% of all pairs of compound and target were hits.
experimentalEndpoint: log2 fold change

- NC(=O)c1ccc2nc(-c3ccc(Oc4ccc(Cl)cc4)cc3)[nH]c2c1: -0.005
- O=C(Nc1nc2ccccc2n1CCN1CCOCC1)c1cccc([N+](=O)[O-])c1: -0.076
- CC(C)N(C[C@H]1O[C@@H](n2cnc3c(N)ncnc32)[C@H](O)[C@@H]1O)[C@H]1C[C@@H](CCc2nc3cc(C(C)(C)C)ccc3[nH]2)C1: 0.152
- CN(C)CC(=O)Nc1ccc2[nH]c(=O)c3ccccc3c2c1: 0.013
- Cc1ccc(NC(=O)c2cccc(C(C)(C)C#N)c2)cc1Nc1ccc2ncn(C)c(=O)c2c1: 0.015
- CC(C)C[C@@H](C=O)NC(=O)[C@H](CC(C)C)NC(=O)[C@H](CC(C)C)NC(=O)OCc1ccccc1: 0.007
- Cn1cncc1[C@@](N)(c1ccc(Cl)cc1)c1ccc2c(c1)c(-c1cccc(Cl)c1)cc(=O)n2C: -0.087
- O=C1c2ccccc2-c2n[nH]c3cccc1c23: -0.031
- O=C1NC(=NCc2cccs2)S/C1=C\c1ccc2ncccc2c1: -0.021
- Cc1cccc(-c2[nH]c(C(C)(C)C)nc2-c2ccc3nccnc3c2)n1: 0.006
- Cc1ccc(NC(=O)c2cccc(N(C)C)c2)cc1NC(=O)c1ccc(O)cc1: -0.043
- CN(CCOc1ccc(C[C@@H]2SC(=O)NC2=O)cc1)c1ccccn1 (racemic): 0.066
- C#Cc1cccc(Nc2ncnc3cc(OCCOC)c(OCCOC)cc23)c1: 0.016
- Cc1ccc(NC(=O)c2ccc(CN3CC[C@H](N(C)C)C3)c(C(F)(F)F)c2)cc1Nc1nccc(-c2cncnc2)n1: 0.003
- O=C1NC(=O)C(c2cnc3ccccn23)=C1c1cn2c3c(cc(F)cc13)CN(C(=O)N1CCCCC1)CC2: 0.054
- Cc1cn(-c2cc(NC(=O)c3ccc(C)c(Nc4nccc(-c5cccnc5)n4)c3)cc(C(F)(F)F)c2)cn1: -0.088

Hey, just so you know, these numbers are from the supplement of paper PMC10849652.
